- system.under.test: T1, Toscana virus nucleoprotein N (Toscana virus, UniProt P21701 1-253)
- T1 sequence: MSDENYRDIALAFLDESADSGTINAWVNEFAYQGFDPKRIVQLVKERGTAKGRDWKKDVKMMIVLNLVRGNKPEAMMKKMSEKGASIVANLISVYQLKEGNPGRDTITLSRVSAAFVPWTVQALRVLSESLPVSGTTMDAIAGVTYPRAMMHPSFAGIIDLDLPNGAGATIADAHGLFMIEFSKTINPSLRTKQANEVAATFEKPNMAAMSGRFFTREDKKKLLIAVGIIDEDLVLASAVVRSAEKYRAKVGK
- test.protocol: ITC; n=0.52; ITC: 20 mM Tris pH 7.5, 150 mM NaCl, 8 C; 400 uM RNA titrated into 30 uM apo N
- setup.conditions: protein: recombinant; tags: N-terminal His6; chain copies: 6; single strand

binder	scale.unit	Kd
UGUGUUU (ssRNA) [oligo7 (7-mer from oligo1)]	nM	2700
